assay: Solubility in a solvent (qualitative); assay type: physicochemical; conditions: acetone
outcome_measure: solubility in a solvent

Cc1cc(C)[n]([Pt-2]([n]2nc(C)cc2C)([n+]2[nH]c(C)cc2C)[n+]2[nH]c(C)cc2C)n1.Cc1cc(C)[n]([Pt-2]([n]2nc(C)cc2C)([n+]2[nH]c(C)cc2C)[n+]2[nH]c(C)cc2C)n1 [[{Pt(dmpz)2(dmpzH)2}2]]
not soluble
Cc1cc(C)[n+]2[n]1[Pt-2]13[n]4c(C)cc(C)[n+]4[Ag-][n]4c(C)cc(C)[n+]4[Pt-2]([n]4c(C)cc(C)[n+]4[Ag-][n]4c(C)cc(C)[n+]41)([n]1c(C)cc(C)[n+]1[Ag-][n]1c(C)cc(C)[n+]13)[n+]1c(C)cc(C)[n]1[Ag-]2 [[Pt2Ag4(μ-dmpz)8]]
not soluble
